# System Tested: Delta-type opioid receptor (Homo sapiens, UniProt P41143)
# Sequence (P41143 whole entry): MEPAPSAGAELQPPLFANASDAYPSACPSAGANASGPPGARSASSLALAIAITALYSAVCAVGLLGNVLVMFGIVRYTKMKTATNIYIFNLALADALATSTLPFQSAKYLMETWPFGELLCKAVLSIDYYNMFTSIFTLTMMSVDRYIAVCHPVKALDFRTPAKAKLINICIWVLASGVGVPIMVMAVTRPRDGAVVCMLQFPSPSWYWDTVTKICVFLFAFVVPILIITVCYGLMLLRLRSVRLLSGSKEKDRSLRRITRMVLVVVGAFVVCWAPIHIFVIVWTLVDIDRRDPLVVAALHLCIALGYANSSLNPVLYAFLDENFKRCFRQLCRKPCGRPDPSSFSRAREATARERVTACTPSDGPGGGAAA
# Procedure Summary: Displacement of [3H]DPDPE from Myc-tagged delta opioid receptor expressed in HEK293 cells after 60 mins by liquid scintillation counter
Reported Endpoint: Ki
I'd appreciate it if you included the unit after the number.

// query Would you kindly share the measured Ki for "C=C(C(N)=O)[C@@H](NC(=O)[C@H](Cc1c[nH]c2ccccc12)NC(=O)[C@@H]1CCCN1C(=O)[C@@H](N)Cc1ccc(O)cc1)c1ccc(F)cc1" ?
// result 17 µM

// query Would you mind doing "C=C(C(=O)N[C@@H](Cc1ccccc1)C(N)=O)[C@@H](NC(=O)[C@@H]1CCCN1C(=O)[C@@H](N)Cc1ccc(O)cc1)c1ccccc1" as well?
// result 59.3 µM

// query Another compound to look at: "C=C(C(N)=O)[C@@H](NC(=O)[C@H](Cc1c[nH]c2ccccc12)NC(=O)[C@@H]1CCCN1C(=O)[C@@H](N)Cc1ccc(O)cc1)c1ccc(OC)cc1"
// result 10.2 µM

// query Further, for "C=C(C(N)=O)[C@@H](NC(=O)[C@H](Cc1c[nH]c2ccccc12)NC(=O)[C@@H]1CCCN1C(=O)[C@@H](N)Cc1ccc(O)cc1)c1ccc2ccccc2c1" ?
// result 84.9 µM

// query Please answer likewise for "C=C(C(N)=O)[C@@H](NC(=O)[C@H](Cc1c[nH]c2ccccc12)NC(=O)[C@@H]1CCCN1C(=O)[C@@H](N)Cc1ccc(O)cc1)c1cccc(Cl)c1"
// result 5.82 µM

// query Try this compound next: "C=C(C(N)=O)[C@@H](NC(=O)[C@H](Cc1c[nH]c2ccccc12)NC(=O)[C@@H]1CCCN1C(=O)[C@@H](N)Cc1ccc(O)cc1)c1ccco1"
// result 50 µM

// query Now give it for "C=C(C(N)=O)[C@@H](NC(=O)[C@H](Cc1c[nH]c2ccccc12)NC(=O)[C@@H]1CCCN1C(=O)[C@@H](N)Cc1ccc(O)cc1)c1ccoc1" too.
// result 50.9 µM

Source: ChEMBL document CHEMBL2163332
